Assay: CCTE_Shafer_MEA_acute_spike_number: CCTE's Neural Acute Assay for Total Number of Spikes, Shafer Lab (AID 2284008)
Experimental: CCTE_Shafer_MEA_acute assay is conducted using Axion Biosystems 48 well microelectrode array (MEA) plates and Maestro recording system. Each well of the MEA plate contains a grid of 16 microelectrodes embedded in the culture surface. Electrically active cells, such as neurons, can be cultured over the electrodes, and electrical activity in these cells can be recorded extracellularly. […] Data from the assay component CCTE_Shafer_MEA_acute_spike_number was analyzed into 1 assay endpoint. […]
Calls of active or inactive are those of the source. The calls were made as follows: active = hit-call score of the fitted dose curve at least 0.9, where 1 is the maximum; inactive = score below 0.9.
Write down one outcome, taken from class 1 = active, class 0 = inactive

Before answering, review these 2 worked examples.
COc1ccccc1Oc1c(NS(=O)(=O)c2ccc(C(C)(C)C)cc2)nc(-c2ncccn2)nc1OCCO | class 0
CCC[Si](OC(C)=O)(OC(C)=O)OC(C)=O | class 1

Let's switch to this compound now.
-- ask What did the test return for C1CN(CCOCCN2CCOCC2)CCO1 ?
-- reply class 0
